# measured.on: T1, human CD3 expressed on cells (Jurkat cells; human primary T cells) (human, UniProt P07766 23-207; P04234 22-171; P09693 23-182)
# T1 construct: whole, on cells
# assay.procedure: flow cytometry, 25 nM, Jurkat cells
readout.name: Binding (FOI)
Expressed in FOI, but write only the number.

Check the records and state Binding (FOI) for mAb 177 (antibody, V domains shown, VH/VL only; the printed VL holds a letter U) VH: EVQLVESGGGLVQPGMSLRLSCAASGFTFDDYTMHWVRQSPGKGLEWVAGISWNSGTIGYGDSMKGRFTISRDNAKNSLDLQMNSLRVEDTALYYCAKDTSGYGHYYYYFMDVWGKGTTVTVSS VL: DIQMTQSPSSLSASIGDRVSITCRTSQIINNYLNWYQQKPGKAPKLLIYSASSLQSGVPSRFSGSGSGTDFTLTLSSLQPEDFATYFCQQSYNFPITFGQGTRLELK
121
